# System: OvCAR3 cells
# measurement-protocol: Cellular proliferation / Cytotoxicity assay (Alamar Blue / Resazurin cell viability)
# Type: cell-based
# settings: Homo sapiens, OVCAR-3, 48h incubation, read-out: Anti-proliferative / Cytotoxic activity (OvCAR3 cells)
Quick list: IC50 per entry.

Field: example entries. Status: answers known.
smiles-input	study-target	assay-result
c1ccc(-c2nc(C3CCN(Cc4ccc(-c5nc6ccccn6c5-c5ccncc5)cc4)CC3)n[nH]2)nc1	OvCAR3 cells	< 10 µM
Fc1ccc(-c2c(-c3ccc(CN4CCC(c5n[nH]c(-c6ccccn6)n5)CC4)cc3)nc3ccccn23)cc1	OvCAR3 cells	> 10 µM
Clc1ccc2nc(-c3ccc(CN4CCC(c5nnc(-c6ccccn6)[nH]5)CC4)cc3)c(-c3ccccc3)n2c1	OvCAR3 cells	< 10 µM
Clc1cnc2nc(-c3ccc(CN4CCC(c5n[nH]c(-c6ccccn6)n5)CC4)cc3)c(-c3ccccc3)n2c1	OvCAR3 cells	< 10 µM
c1ccc(-c2nc(C3CCN(Cc4ccc(-c5nc6ncccn6c5-c5ccncc5)cc4)CC3)n[nH]2)nc1	OvCAR3 cells	> 10 µM
COc1cccn2c(-c3ccccc3)c(-c3ccc(CN4CCC(c5n[nH]c(-c6ccccn6)n5)CC4)cc3)nc12	OvCAR3 cells	< 10 µM
c1ccc(-c2c(-c3ccc(CN4CCC(c5n[nH]c(-c6ccccn6)n5)CC4)cc3)nc3ncccn23)cc1	OvCAR3 cells	< 10 µM
Fc1ccc(-c2c(-c3ccc(CN4CCC(c5n[nH]c(-c6ccccn6)n5)CC4)cc3)nc3ncccn23)cc1	OvCAR3 cells	< 10 µM
N=C(N)c1cccn2c(-c3ccccc3)c(-c3ccc(CN4CCC(c5n[nH]c(-c6ccccn6)n5)CC4)cc3)nc12	OvCAR3 cells	> 10 µM
NC(=O)c1ccn2c(-c3ccccc3)c(-c3ccc(CN4CCC(c5n[nH]c(-c6ccccn6)n5)CC4)cc3)nc2c1	OvCAR3 cells	< 10 µM

Briefly, IC50 measured for c1ccc(-c2c(-c3ccc(CN4CCC(c5n[nH]c(-c6ccccn6)n5)CC4)cc3)nc3cnccn23)cc1 : < 10 µM

Briefly, IC50 measured for FC(F)(F)c1ccn2c(-c3ccccc3)c(-c3ccc(CN4CCC(c5n[nH]c(-c6ccccn6)n5)CC4)cc3)nc2n1 : < 10 µM

Briefly, IC50 measured for Brc1cccn2c(-c3ccccc3)c(-c3ccc(CN4CCC(c5n[nH]c(-c6ccccn6)n5)CC4)cc3)nc12 : < 10 µM

Briefly, IC50 measured for c1ccc(-c2nc(C3CCN(Cc4ccc(-c5nc6ncccn6c5-c5cccs5)cc4)CC3)n[nH]2)nc1 : < 10 µM

Data origin: patent EP2062893A1
